- Assay Name: chemical genetic growth profiling, strain panel (AID 1159580);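 also: tested at 20 µM; growth read once vehicle control cultures reached saturation at 30 °C; 1 = growth at the plate median or of vehicle wells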
- Conditions Used: S. cerevisiae deletion strains, growth OD, locus YJL129C, strain trk1, hits give low values
The campaign covered roughly 5,500 compounds. About 2,000 (36%) were called active. Roughly 18% stayed inconclusive and do not appear here. The list shows a part of the results.
Parameter Measured: normalized growth
// no unit, no text: just the number

Solved cases below.
Molecule | Quantitative Readout
CCCCNc1cc(C(=O)O)cc(S(N)(=O)=O)c1Oc1ccccc1 | 1.01
COc1cc(O)c(C(=O)/C=C/c2ccc(O)c(OC)c2)c(OC)c1 | 0.965
COc1ccc2c(c1OC)C(=O)O[C@@H]2[C@H]1c2cc3c(cc2CCN1C)OCO3 | 1.02
COC1=CC(=O)C[C@@H](C)[C@]12Oc1c(Cl)c(OC)cc(OC)c1C2=O | 0.964
COc1cc2c(cc1OC)[C@@H]1C(=O)c3ccc4c(c3O[C@@H]1CO2)C=CC(C)(C)O4 | 0.985

Value of measured normalized growth for the entry CN[C@@H](C)[C@@H](O)c1ccccc1 : 1.01

Value of measured normalized growth for the entry NC(=O)C(c1ccccc1)(c1ccccc1)C1CCN(CCc2ccc3c(c2)CCO3)C1 (stereo not drawn) : 0.999

Value of measured normalized growth for the entry CCOC(=O)CCC(=O)O[C@H]1[C@H](O[C@@H]2[C@@H](C)[C@H](O[C@H]3C[C@@](C)(OC)[C@@H](O)[C@H](C)O3)[C@@H](C)C(=O)O[C@H](CC)[C@@](C)(O)[C@H](O)[C@@H](C)C(=O)[C@H](C)C[C@@]2(C)O)O[C@H](C)C[C@@H]1N(C)C : 1

Value of measured normalized growth for the entry C=C1C2CC[C@H]3[C@]4(C)C[C@H](OC5OC(CO)C(OS(=O)(=O)O)C(OS(=O)(=O)O)C5OC(=O)CC(C)C)C[C@@H](C(=O)O)[C@H]4CC[C@]3(C2)[C@H]1O (stereo partly drawn) : 1.01

###

Recorded normalized growth, one value per entry.
- Assay Name: chemical genetic growth profiling, strain panel (AID 1159580)
- Conditions Used: S. cerevisiae deletion strains, growth OD, locus YFL029C, strain CAK1, hits give low values
The whole screen tested about 5,500 compounds, of which about 2,000 (36%) were called active. Roughly 18% stayed inconclusive and do not appear here. The list shows a part of the results.

Molecule | normalized growth
S=C(Nc1ccc(Cl)cc1Cl)N(c1cccc(Cl)c1)c1nc2ccccc2s1 | 0.962 (inactive)
COc1cc(NC(=S)NC(=O)c2ccccc2)c(OC)cc1Cl | 0.98 (inactive)
Cc1c(Cc2ccc(F)cc2)c(=O)oc2cc(O)ccc12 | 0.97 (inactive)
Cc1ccc2nc(-c3ccc(Cl)cc3)cn2c1 | 0.956 (inactive)
Cc1ccc(OCC2SCCN2C(=O)c2ccc(C(F)(F)F)cc2)c([N+](=O)[O-])c1 (stereo not given) | 1.01 (inactive)
COc1ccc(/C=C2\CSc3ccc(F)cc3C2=O)cc1 | 0.947 (inactive)

Value of measured normalized growth for the entry COc1cc(NC(=S)NNS(=O)(=O)c2ccc(C)cc2)c(OC)cc1Cl : 0.976 (inactive)

###

- Assay Name: chemical genetic growth profiling, strain panel (AID 1159580)
- Conditions Used: S. cerevisiae deletion strains, growth OD, locus YMR231W, strain pep5, hits give low values
The campaign covered roughly 5,500 compounds. About 2,000 (36%) were called active. Inconclusive results (about 18%) are left out. The list shows a part of the results.
Parameter Measured: normalized growth
// no unit, no text: just the number

Solved cases below.
Compound | Parameter Measured | Quantitative Readout
COc1ccc2c3c1O[C@H]1C[C@@H](O)C=C[C@@]31CCN(C)C2 | normalized growth | 1
Cc1cccc(C)c1OCC(C)N (stereo unspecified) | normalized growth | 1.01
COc1ccc2c(c1OC)C(=O)O[C@@H]2[C@H]1c2cc3c(cc2CCN1C)OCO3 | normalized growth | 0.993
COc1cc2c(cc1OC)[C@@H]1C(=O)c3ccc4oc(C(C)C)cc4c3O[C@@H]1CO2 | normalized growth | 0.985
CCOC(=O)c1c(C)cc(O)c(C=O)c1O | normalized growth | 0.311
COc1ccc2c(c1OC)C(=O)O[C@H]2[C@H]1c2cc3c(cc2CCN1C)OCO3 | normalized growth | 0.999

Value of measured normalized growth for the entry COc1cc2c(cc1OC)[C@@H]1C(=O)c3ccc4c(c3O[C@@H]1CO2)C=CC(C)(C)O4 : 1.02

###

- Assay Name: chemical genetic growth profiling, strain panel (AID 1159580)
- Conditions Used: S. cerevisiae deletion strains, growth OD, locus YPL153C, strain RAD53, hits give low values
Hit rate of the full screen: of about 5,500 compounds, about 2,000 (36%) were called active. Not shown: some 18% with an inconclusive outcome. This is one part of the list.
Threshold 0.9. normalized growth below it: yes (1). normalized growth at it or above: no (0).

Compound | Discrete Label
O=C1C(=O)N(CN2CCc3c([nH]c4ccccc34)C2C(F)(F)F)c2ccc(F)cc21 (configuration not stated) | yes (1)

Query: Could you please tell me whether normalized growth recorded for COc1cc(NC(=S)N(C)C)c(OC)cc1Cl is less than 0.9?
Reply: no (0)

Query: Could you please tell me whether normalized growth recorded for Cc1nn(Cc2cccc(C(=O)Nc3ccc(Cl)cc3)c2)c(C)c1Br is less than 0.9?
Reply: no (0)

###

Recorded normalized growth, one value per entry.
- Assay Name: chemical genetic growth profiling, strain panel (AID 1159580);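 also: tested at 20 µM; growth read once vehicle control cultures reached saturation at 30 °C; 1 = growth at the plate median or of vehicle wells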
- Conditions Used: S. cerevisiae deletion strains, growth OD, locus YNL248C, strain rpa49, hits give low values
In all, about 5,500 compounds went through this assay and about 2,000 (36%) were called active. Inconclusive results (about 18%) are left out. The list shows a part of the results.

Compound | Result
COc1cc2c(cc1OC)[C@@H]1C(=O)c3ccc4c(c3O[C@@H]1CO2)C=CC(C)(C)O4 | 1.02 (inactive)
COc1cc(NC(C)CCCN)c2ncccc2c1 (stereo not drawn) | 0.938 (inactive)
CC(C)OC(=O)C(C)(C)Oc1ccc(C(=O)c2ccc(Cl)cc2)cc1 | 0.997 (inactive)
NCC1CCC(C(=O)O)CC1 (stereo not drawn) | 0.988 (inactive)
CCOC(=O)[C@H](CCc1ccccc1)N[C@H]1CCc2ccccc2N(CC(=O)O)C1=O | 0.98 (inactive)

Moving on to another compound below.
Value of measured normalized growth for the entry COc1ccc2cc([C@H](C)CO)ccc2c1 : 0.968 (inactive)

###

- Assay Name: chemical genetic growth profiling, strain panel (AID 1159580);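 also: tested at 20 µM; growth read once vehicle control cultures reached saturation at 30 °C; 1 = growth at the plate median or of vehicle wells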
- Conditions Used: S. cerevisiae deletion strains, growth OD, locus YFR019W, strain FAB1
Screen size: about 5,500 compounds; about 2,000 (36%) were called active. Not shown: some 18% with an inconclusive outcome. No stated cut-off is given here; in the data, active means normalized growth mostly below about 0.91 (no sharp cut-off); inconclusive means no clear call, values can overlap the other calls; inactive means mostly above about 0.92. Some of the results follow.
// classify into active, inactive

Molecule | Discrete Label
O=c1c(Sc2ccc(Cl)cc2)c(Sc2ccc(Cl)cc2)c1=O | active
O=C(N/C=C/c1ccsc1)Nc1cc(C(F)(F)F)cc(C(F)(F)F)c1 | active

Query: How was O=C(NNc1ccccc1F)c1ccno1 classified in this test?
Reply: inactive

Query: How was Cc1c(Cc2ccc(F)cc2)c(=O)oc2cc(O)ccc12 classified in this test?
Reply: inactive

Query: How was OC1(C(F)(F)F)CC(C23CC4CC(CC(C4)C2)C3)=NN1 (configuration not stated) classified in this test?
Reply: active

Query: How was Cc1nnsc1C(=O)NNc1ccc(F)cc1F classified in this test?
Reply: active

Query: How was CCOC(=O)CSC(=S)NCc1ccc(C)cc1 classified in this test?
Reply: inactive

Query: How was S=C(Nc1ccc(Cl)cc1Cl)N(c1cccc(Cl)c1)c1nc2ccccc2s1 classified in this test?
Reply: inactive

Query: How was Cc1ccc2nc(-c3ccc(Cl)cc3)cn2c1 classified in this test?
Reply: inactive

Query: How was O=S(=O)(Nc1cccc2nsnc12)c1cc(Cl)sc1Cl classified in this test?
Reply: inactive

###

Recorded normalized growth, one value per entry.
- Assay Name: chemical genetic growth profiling, strain panel (AID 1159580);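 also: tested at 20 µM; growth read once vehicle control cultures reached saturation at 30 °C; 1 = growth at the plate median or of vehicle wells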
- Conditions Used: S. cerevisiae deletion strains, growth OD, locus YJL092W, strain hpr5, hits give low values
Screen size: about 5,500 compounds; about 2,000 (36%) were called active. About 18% were inconclusive and are not listed. This is one part of the list.
// no unit, no text: just the number

Solved cases below.
Compound | normalized growth
CCCCNc1cc(C(=O)O)cc(S(N)(=O)=O)c1Oc1ccccc1 | 1.01
CC(=O)[C@H]1CCC2C3CCC4=CC(=O)CC[C@]4(C)C3CC[C@@]21C (stereo not given in full) | 0.969
CC1=C(C(C)O)C2=NC1C=c1[nH]c(c(C)c1C(C)O)=Cc1[nH]c(c(CCC(=O)O)c1C)C=c1[nH]c(c(C)c1CCC(=O)O)=C2 (stereo not given) | 0.992
CCC(=O)O[C@H]1[C@H](O[C@@H]2[C@@H](C)[C@H](O[C@H]3C[C@@](C)(OC)[C@@H](O)[C@H](C)O3)[C@@H](C)C(=O)O[C@H](CC)[C@@](C)(O)[C@H](O)[C@@H](C)C(=O)[C@H](C)C[C@@]2(C)O)O[C@H](C)C[C@@H]1N(C)C | 1.01

Value of measured normalized growth for the entry O=C(O)c1cc2ccccc2[nH]1 : 0.97
